Recorded values, source patent US11472838B2.

# Subject Of Test: TG2 (Homo sapiens (Human), UniProt P21980)
# Sequence (P21980 whole entry): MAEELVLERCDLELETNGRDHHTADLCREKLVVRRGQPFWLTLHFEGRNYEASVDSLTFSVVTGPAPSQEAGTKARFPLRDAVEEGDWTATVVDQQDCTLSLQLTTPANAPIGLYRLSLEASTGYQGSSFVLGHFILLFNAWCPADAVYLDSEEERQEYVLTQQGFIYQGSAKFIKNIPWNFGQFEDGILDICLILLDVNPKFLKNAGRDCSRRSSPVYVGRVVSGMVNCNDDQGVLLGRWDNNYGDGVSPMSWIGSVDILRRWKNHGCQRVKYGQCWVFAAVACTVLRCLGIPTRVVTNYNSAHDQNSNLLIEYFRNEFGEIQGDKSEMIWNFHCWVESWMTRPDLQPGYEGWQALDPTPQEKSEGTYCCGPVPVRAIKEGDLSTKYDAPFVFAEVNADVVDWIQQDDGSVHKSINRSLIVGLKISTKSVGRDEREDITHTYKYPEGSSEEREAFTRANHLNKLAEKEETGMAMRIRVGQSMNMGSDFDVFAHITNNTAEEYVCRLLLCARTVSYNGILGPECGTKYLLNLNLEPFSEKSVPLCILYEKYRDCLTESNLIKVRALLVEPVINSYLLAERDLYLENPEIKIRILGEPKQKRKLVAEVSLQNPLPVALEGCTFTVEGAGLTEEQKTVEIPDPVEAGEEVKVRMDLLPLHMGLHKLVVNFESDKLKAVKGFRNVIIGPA
# Procedure Text: Inhibitory activity against TG2 (isopeptidase assay), Tables 3 and 4
# Format: biochemical
# Cond: TG2 versus FXIII, Table 4
*1 amine or outer side, *2 acyl side, *3 side chain or, on linkers, in order; H or OH if unused. Where a SMILES comes first, the peptide text is derived from it. [ ]: non-standard residue; d: D form. The star is where a group is joined. ξ: configuration not given here. Nle(5E-ene,6-CO2Et) = CCOC(=O)/C=C/CC[C@H](N)C(=O)O; X1 = COC(=O)/C=C/CC[C@H](N[*:1])C(=O)[*:2]; Morpholine(3S-CO) = O=C(O)[C@@H]1COCCN1; Pro(4-oxo) = O=C1CN[C@H](C(=O)O)C1; Thiophene2carbonyl = O=C(c1cccs1)*; Ala(cPr) = N[C@@H](CC1CC1)C(=O)O; Thr(3ξ) = CC(O)[C@H](N)C(=O)O; Chg = N[C@H](C(=O)O)C1CCCCC1
Here the recorded Selectivity is given for each entry.

See these solved cases before continuing.
[
  {
    "Compound": "CCOC(=O)/C=C/CC[C@H](NC(=O)c1cccs1)C(=O)N[C@@H](CCC(N)=O)C(=O)N1CCC[C@H]1C(=O)N[C@@H](CC(C)C)C(=O)N[C@H](C(N)=O)C1CCCCC1 [Ref. 11, reference compound] (Thiophene2carbonyl-[Nle(5E-ene,6-CO2Et)]QPL[Chg]-NH2)",
    "Subject Of Test": "TG2 (Homo sapiens (Human), UniProt P21980)",
    "Selectivity": 0.05
  },
  {
    "Compound": "COC(=O)/C=C/CC[C@H](NC(=O)[C@@H]1CC(=O)CN1)C(=O)N[C@@H](CC1CC1)C(=O)N1CCOC[C@H]1C(=O)N[C@@H](CC(C)C)C(=O)N1CCC[C@H]1C(=O)O [Compound 44] (H-[Pro(4-oxo)][X1][Ala(cPr)][Morpholine(3S-CO)]LP-OH)",
    "Subject Of Test": "TG2 (Homo sapiens (Human), UniProt P21980)",
    "Selectivity": 5.66
  }
]

Please turn your attention to the following entry.
## Input Let me know recorded Selectivity for COC(=O)/C=C/CC[C@H](NC(=O)[C@H](CC(N)=O)NC(C)=O)C(=O)N[C@@H](CCC(=O)O)C(=O)N[C@@H](CCC(N)=O)C(=O)N[C@H](C(=O)N[C@@H](CO)C(=O)N1CCC[C@H]1C(=O)N[C@@H](CC(C)C)C(=O)N[C@H](C(=O)O)C(C)O)C(C)C (stereo partly drawn) [Ref. 20, reference compound] (Ac-N[X1]EQVSPL[Thr(3ξ)]-OH) , thanks.
## Output 0.04

====

# Subject Of Test: FXIII (Homo sapiens (Human), UniProt P00488)
# Sequence (P00488 39-732): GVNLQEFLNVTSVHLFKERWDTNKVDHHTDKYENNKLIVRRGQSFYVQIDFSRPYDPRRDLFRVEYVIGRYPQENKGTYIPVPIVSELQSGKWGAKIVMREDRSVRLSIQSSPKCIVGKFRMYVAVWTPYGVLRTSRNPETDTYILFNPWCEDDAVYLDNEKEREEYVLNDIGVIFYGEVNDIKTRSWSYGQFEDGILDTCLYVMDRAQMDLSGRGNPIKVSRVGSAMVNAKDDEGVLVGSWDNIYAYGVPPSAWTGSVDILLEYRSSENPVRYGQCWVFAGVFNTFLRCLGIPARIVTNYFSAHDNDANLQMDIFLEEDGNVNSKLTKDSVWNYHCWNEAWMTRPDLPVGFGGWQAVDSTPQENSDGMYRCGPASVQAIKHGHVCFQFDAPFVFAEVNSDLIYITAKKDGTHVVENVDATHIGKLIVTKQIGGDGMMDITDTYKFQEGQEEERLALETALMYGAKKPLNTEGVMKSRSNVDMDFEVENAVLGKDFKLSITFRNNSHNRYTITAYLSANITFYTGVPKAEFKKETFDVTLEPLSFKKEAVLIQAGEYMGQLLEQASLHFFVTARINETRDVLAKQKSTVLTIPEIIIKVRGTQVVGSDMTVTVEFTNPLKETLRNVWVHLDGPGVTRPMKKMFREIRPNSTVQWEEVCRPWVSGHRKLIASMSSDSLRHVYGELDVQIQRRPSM
# Procedure Text: Inhibitory activity against FXIII (isopeptidase assay), Tables 3 and 4;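 further: FXIIIa activity read with a peptide substrate derived from the α2-antiplasmin N-terminal dodecapeptide, FXIII activated beforehand at room temperature, inhibitor-free wells with DMSO buffer as control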
# Format: biochemical
# Cond: Table 4; read-out: FXIII IC50
*1 amine or outer side, *2 acyl side, *3 side chain or, on linkers, in order; H or OH if unused. Where a SMILES comes first, the peptide text is derived from it. [ ]: non-standard residue; d: D form. ξ: configuration not given here. X1 = COC(=O)/C=C/CC[C@H](N[*:1])C(=O)[*:2]; Thr(3ξ) = CC(O)[C@H](N)C(=O)O
Measure: IC50 (µM)
Expressed in µM, but write only the number.

## Input Let me know recorded IC50 for COC(=O)/C=C/CC[C@H](NC(=O)[C@H](CC(N)=O)NC(C)=O)C(=O)N[C@@H](CCC(=O)O)C(=O)N[C@@H](CCC(N)=O)C(=O)N[C@H](C(=O)N[C@@H](CO)C(=O)N1CCC[C@H]1C(=O)N[C@@H](CC(C)C)C(=O)N[C@H](C(=O)N[C@@H](CC(C)C)C(=O)O)C(C)O)C(C)C (stereo partly drawn) [Ref. 19, reference compound] (Ac-N[X1]EQVSPL[Thr(3ξ)]L-OH) , thanks.
## Output 4.98
